- Test system: HSV-1
- test: Anti-HSV-1 replication assay (Vero cells, plaque titer)
- Type: cell-based, herpes simplex virus 1
- runConditions: Human alphaherpesvirus 1, Vero, Table 2 amides; compound at 1 μM; values separated by / are repeats; read-out: HSV-1 suppression 1 μM
Response key: condition met means log reduction at 1 µM >= 0.03; condition not met means log reduction at 1 µM < 0.03.

These recorded examples may help you get a feel for the data.
compound: Cc1ccc(CNC(=O)c2cc(O)c(=O)c(O)cc2C)c(C)c1
group: condition not met

compound: Cc1cc(O)c(=O)c(O)cc1C(=O)NCCc1ccccc1
group: condition met

Query: Given the entry Cc1cc(O)c(=O)c(O)cc1C(=O)N1CCN(C(=O)C2CCCCC2)CC1 , answer whether its log reduction at 1 µM meets or surpasses 0.03.
Reply: condition not met

Query: I'd appreciate it if you could say whether Cc1cc(O)c(=O)c(O)cc1C(=O)Nc1cccc(Cc2ccccc2)c1 has log reduction at 1 µM at least equal to 0.03.
Reply: condition met

Query: Could you please find out whether COc1ccc(C(=O)N2CCN(C(=O)c3cc(O)c(=O)c(O)cc3C)CC2)cc1 has log reduction at 1 µM that meets 0.03 or exceeds it?
Reply: condition not met

Query: Is log reduction at 1 µM for Cc1cc(O)c(=O)c(O)cc1C(=O)N1CCN(C(=O)C2COc3ccccc3O2)CC1 (stereo not shown) at or above 0.03?
Reply: condition not met
